molecular target: Protein-glutamine gamma-glutamyltransferase (Homo sapiens) (UniProt P21980); assay: Inhibition of TG2 (unknown origin) using Cbz-Glu(gamma-p-nitrophenyl ester)Gly (AL5) as substrate assessed as Kinact/Ki ratio and measured by colorimetric assay
Sequence (P21980 whole entry): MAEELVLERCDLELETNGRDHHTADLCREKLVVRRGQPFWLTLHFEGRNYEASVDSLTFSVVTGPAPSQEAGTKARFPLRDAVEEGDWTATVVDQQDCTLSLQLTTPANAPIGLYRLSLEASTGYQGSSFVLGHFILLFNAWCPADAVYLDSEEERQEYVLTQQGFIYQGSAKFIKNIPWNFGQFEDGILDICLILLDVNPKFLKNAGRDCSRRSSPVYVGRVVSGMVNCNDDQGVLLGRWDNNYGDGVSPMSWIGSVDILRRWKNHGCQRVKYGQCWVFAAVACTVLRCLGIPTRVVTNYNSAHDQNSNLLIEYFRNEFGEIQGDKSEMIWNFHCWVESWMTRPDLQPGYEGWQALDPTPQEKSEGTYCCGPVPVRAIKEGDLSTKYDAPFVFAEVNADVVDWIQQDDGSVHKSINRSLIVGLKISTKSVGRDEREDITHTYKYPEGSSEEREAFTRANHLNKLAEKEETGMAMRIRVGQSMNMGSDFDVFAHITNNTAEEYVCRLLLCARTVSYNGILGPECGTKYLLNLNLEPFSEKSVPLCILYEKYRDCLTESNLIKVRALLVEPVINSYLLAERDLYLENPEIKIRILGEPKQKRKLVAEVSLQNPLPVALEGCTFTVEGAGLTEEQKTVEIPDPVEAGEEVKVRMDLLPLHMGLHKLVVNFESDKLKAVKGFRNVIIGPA
QUANTITY: Ratio

Solved entries (count: 5):
- C=CC(=O)NCCCC[C@H](NC(=O)C1CCCCC1)C(=O)N1CCN(C(=O)c2cccc3ccccc23)CC1: 33.6 10^3/M/min
- C=CC(=O)NCCCC[C@H](NC(=O)C(C)(C)C)C(=O)N1CCN(C(=O)c2cccc3ccccc23)CC1: 56.2 10^3/M/min
- C=CC(=O)NCCCC[C@H](NC(=O)c1cccc2ccccc12)C(=O)N1CCN(C(=O)c2cccc3ccccc23)CC1: 20.1 10^3/M/min
- C=CC(=O)NCCCC[C@H](NC(=O)CC)C(=O)N1CCN(C(=O)c2cccc3ccccc23)CC1: 103 10^3/M/min
- C=CC(=O)NCCCC[C@H](NS(C)(=O)=O)C(=O)N1CCN(C(=O)c2cccc3ccccc23)CC1: 22.6 10^3/M/min

State the recorded Ratio for this entry: `C=CC(=O)NCCCC[C@H](NC(=O)c1cncn1C)C(=O)N1CCN(C(=O)c2cccc3ccccc23)CC1`
12.6 10^3/M/min

Any idea what its Ratio is? The compound is `C=CC(=O)NCCCC[C@H](NC(=O)c1cccc(F)c1)C(=O)N1CCN(C(=O)c2cccc3ccccc23)CC1`
47.8 10^3/M/min

Need Ratio of `C=CC(=O)NCCCC[C@H](NC(=O)Cc1ccccc1Cl)C(=O)N1CCN(C(=O)c2cccc3ccccc23)CC1` , thanks.
295 10^3/M/min

Data request, read-out Ratio, for `C=CC(=O)NCCCC[C@H](NC(=O)Cc1ccccc1)C(=O)N1CCN(c2cccnc2)CC1`
391 10^3/M/min

Item C=CC(=O)NCCCC[C@H](NC(=O)C1C2CC3CC(C2)CC1C3)C(=O)N1CCN(C(=O)c2cccc3ccccc23)CC1 (some centres not stated) has what recorded Ratio?
14.9 10^3/M/min

What value of measured Ratio is listed for `C=CC(=O)NCCCC[C@H](NC(=O)C1CC1)C(=O)N1CCN(C(=O)c2cccc3ccccc23)CC1` ?
96.6 10^3/M/min

Returns the measured Ratio for the input compound. Input: `C=CC(=O)NCCCC[C@H](NC(=O)c1ccccc1F)C(=O)N1CCN(C(=O)c2cccc3ccccc23)CC1`
39.4 10^3/M/min
